# System: L929
# Test Description: MTT cytotoxicity assay, L929 fibroblasts (and selectivity index)
# Format: cell-based, mouse
# Test Settings: 72 h; IC50 L929 divided by average IC50 of the breast cancer cell lines
Below is a list of entries, each paired with its recorded SI (selectivity index) value.
Recorded Metric: SI (selectivity index)

{"Compound": "Cc1ccccc1.[Cl][Ru]([Cl])[PH](c1ccccc1)(c1ccccc1)c1ccccc1", "Test System": "L929", "Result Number": 1.5}
{"Compound": "Cc1ccccc1.[Cl-].[Cl][Ru+]([PH](c1ccccc1)(c1ccccc1)c1ccccc1)[PH](c1ccccc1)(c1ccccc1)c1ccccc1 [Compound 11Cl, [Ru(η^6-toluene)(PPh3)2Cl]Cl]", "Test System": "L929", "Result Number": 11.8}
{"Compound": "Cc1cccc[c]1[Ru+]([Cl])([PH](c1ccccc1)(c1ccccc1)c1ccccc1)[PH](c1ccccc1)(c1ccccc1)c1ccccc1.F[B-](F)(F)F", "Test System": "L929", "Result Number": 6.8}
{"Compound": "Cc1cccc[c]1[Ru+]([Cl])([PH](c1ccccc1)(c1ccccc1)c1ccccc1)[PH](c1ccccc1)(c1ccccc1)c1ccccc1.c1ccc([B-](c2ccccc2)(c2ccccc2)c2ccccc2)cc1", "Test System": "L929", "Result Number": 3.5}
{"Compound": "Cc1cccc[c]1[Ru+]([Cl])([PH](c1ccccc1)(c1ccccc1)c1ccccc1)[PH](c1ccccc1)(c1ccccc1)c1ccccc1.O=S(=O)([O-])C(F)(F)F", "Test System": "L929", "Result Number": 1.8}
{"Compound": "Cc1cccc[c]1[Ru+]([Cl])([PH](c1ccccc1)(c1ccccc1)c1ccccc1)[PH](c1ccccc1)(c1ccccc1)c1ccccc1.F[P-](F)(F)(F)(F)F", "Test System": "L929", "Result Number": 1.1}
{"Compound": "C[NH+](C)Cc1ccccc1.[Cl-].[Cl][Ru]([Cl])[PH]12CN3CN(CN(C3)C1)C2", "Test System": "L929", "Result Number": 1.5}
{"Compound": "Cc1cccc[c]1[Ru+]([Cl])([PH]12CN3CN(CN(C3)C1)C2)[PH](c1ccccc1)(c1ccccc1)c1ccccc1.F[P-](F)(F)(F)(F)F (centres unmarked)", "Test System": "L929", "Result Number": 10.5}
{"Compound": "Cc1c(C)c(C)[c-](C)c1C.[Cl][Ru+]([PH]12CN3CN(CN(C3)C1)C2)[PH]12CN3CN(CN(C3)C1)C2", "Test System": "L929", "Result Number": 1.1}
{"Compound": "Cc1ccc(C(C)C)cc1.[Cl][Ru]([Cl])[PH]12CN3CN(CN(C3)C1)C2", "Test System": "L929", "Result Number": 1.3}
{"Compound": "Cc1ccc(C(C)C)cc1.[Br][Ru]([Br])[PH]12CN3CN(CN(C3)C1)C2", "Test System": "L929", "Result Number": 1.2}
{"Compound": "Cc1cccc[c]1[Ru+]([Cl])([PH](c1ccccc1)(c1ccccc1)c1ccccc1)[PH](c1ccccc1)(c1ccccc1)c1ccccc1.O=[N+]([O-])[O-]", "Test System": "L929", "Result Number": 11.1}
{"Compound": "Cc1ccccc1.[Cl][Ru]([Cl])[PH]12CN3CN(CN(C3)C1)C2", "Test System": "L929", "Result Number": 1.0}
{"Compound": "Cc1cccc[c]1[Ru+]([Cl])([PH](c1ccccc1)(c1ccccc1)c1ccccc1)[PH](c1ccccc1)(c1ccccc1)c1ccccc1.[F][Sb-]([F])([F])([F])([F])[F]", "Test System": "L929", "Result Number": 12.8}
